Assay: Quantitative High-Throughput drug screen in 47 multiple myeloma cell lines against the NCATS MIPE library collection: MOLP8_DSMZ cell viability assay (AID 1918977); also: nearly all actives have a fitted effect of over 45% in size
Conditions: MOLP8 myeloma viability, CellTiter-Glo ATP luminescence, 48 h; series mostly up to 45.8 µM
Records with an inconclusive call do not appear. Activity calls are given as the source filed them. Calls follow the shape of the dose curve; as a rule, active = well fitted cell-killing curve with a large enough effect; inconclusive = small, poorly fitted or top-dose-only effect, or effect the other way; inactive = no such curve, though single readings can be large or run the other way.
Outcomes: y = active, n = inactive

{"compound": "COc1ccc2c(c1)[C@]13CCCCC1C(C2)N(C)CC3 (stereo not given in full)", "cat": "n"}
{"compound": "NC1CC1c1ccccc1 (stereo not given)", "cat": "n"}
{"compound": "CN(C)[C@@H]1C(=O)C(C(N)=O)=C(O)[C@@]2(O)C(=O)C3=C(O)c4c(O)cccc4[C@@](C)(O)[C@H]3[C@H](O)[C@@H]12", "cat": "y"}
{"compound": "COC1=C[C@@H]2[C@@H]3Cc4ccc(OC)c(O)c4[C@]2(CCN3C)CC1=O", "cat": "n"}
{"compound": "CCN(CC)C(=O)c1ccc(C2=CC3(CCNCC3)Oc3cccc(O)c32)cc1", "cat": "n"}
{"compound": "CCC(=O)OC1CCC2C3CCC4=CC(=O)CC[C@@]4(C)C3CC[C@]12C (stereo not given in full)", "cat": "n"}
{"compound": "c1ccc(CCCN2CCN(CCOC(c3ccccc3)c3ccccc3)CC2)cc1", "cat": "y"}
{"compound": "O=c1cccc2n1CC1CNC[C@H]2C1", "cat": "n"}
{"compound": "O=C(O)CNC(=O)c1c(O)c2ccccc2n(Cc2ccccc2)c1=O", "cat": "n"}
{"compound": "C[C@H]1CCCC=CC2C[C@H](O)C[C@@H]2[C@H](O)C=CC(=O)O1 (stereo not given in full)", "cat": "n"}

---

Test system: CP297
Assay: qHTS profiling for inhibitors of Plasmodium falciparum proliferation (AID 504749); also: nearly all actives have a fitted effect of over 60% in size
Conditions: P. falciparum in erythrocytes, SYBR Green DNA, 72 h; series mostly up to 28.7 µM
Method: NIH National Institute of Allergy and Infectious Diseases [NIAID] NIH Chemical Genomics Center [NCGC] […] Because mature erythrocytes lack DNA, only Plasmodium-derived DNA is detected. NCGC Assay Protocol Summary: The SYBR Green viability assay was adapted from a method described previously (Plouffe et al., 2008). […] The following morning, fluorescence intensity at 485(14) nm excitation and 535(25) nm emission wavelengths was measured on an EnVision (Perkin Elmer) plate reader. […]
Results filed as inconclusive are left out. The source made the active and inactive calls. Calls come from the whole dose curve; as a rule, active = well fitted inhibition curve with a large enough effect; inconclusive = small, poorly fitted or top-dose-only effect; inactive = flat fitted curve, though single readings scatter.
Outcomes: 1 for active, -1 for inactive

{"molecule": "COC(=O)[C@@H](N)CCCN=C(N)N[N+](=O)[O-]", "cat": -1}
{"molecule": "C=CCN1CC[C@]23CCCCC2[C@H]1Cc1ccc(O)cc13 (stereo partly drawn)", "cat": -1}
{"molecule": "CC[N+]1(CCOC(=O)C(O)(c2ccccc2)c2ccccc2)CCCCC1", "cat": -1}
{"molecule": "O=C(O)COc1ccccc1", "cat": -1}
{"molecule": "NC1=NC(=O)N2CC12 (stereo not drawn)", "cat": -1}
{"molecule": "c1ccc(C2(c3ccccc3)CC2C2=NCCN2)cc1 (stereo not drawn)", "cat": -1}
{"molecule": "C#CC1(O)CCC2C3CCC4=CC(=O)CCC4(C)C3CCC21C (stereo not drawn)", "cat": -1}
{"molecule": "CCCCCCCCCCCCCCCC[N+](C)(C)C", "cat": 1}
{"molecule": "O=[N+]([O-])c1ccc([As](=O)(O)O)cc1", "cat": 1}
{"molecule": "Cc1ccc(Cl)c(O)c1", "cat": -1}
{"molecule": "CC(=O)OCC1=C(C(=O)O)N2C(=O)[C@@H](N)[C@@H]2SC1", "cat": -1}
{"molecule": "C1CCC(NC2CCCCC2)CC1", "cat": -1}
{"molecule": "CN[C@@H]1C[C@@H](c2ccc(Cl)c(Cl)c2)c2ccccc21", "cat": -1}

---

Measured growth, % of control by item
Assay: qHTS profiling of the MIPE4 collection as inhibitors of Plasmodium falciparum (HB3) proliferation (AID 743347);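 also: plate controls were DMSO vehicle wells for no effect and artemisinin wells for full effect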
Conditions: P. falciparum HB3 in erythrocytes, SYBR Green DNA, 72 h; at 28.5 µM (top of the series)
observable: growth, % of control

{"molecule": "C[C@]12COC(=O)C[C@@H]1CC[C@@H]1[C@H]2CC[C@@]2(C)[C@H]1CC[C@]2(C)O", "measurement": "93.7%"}
{"molecule": "Clc1ccccc1C(c1ccccc1)(c1ccccc1)n1cccn1", "measurement": "6.73%"}
{"molecule": "CC(=CCCC1=CCC(C2=CC(=O)OC2O)OC1O)CCC1=C(C)CCCC1(C)C (stereo not given)", "measurement": "36%"}
{"molecule": "c1ccc2c(CN3CCNCC3)cccc2c1", "measurement": "109%"}
{"molecule": "N#C[C@H](O[C@@H]1O[C@H](CO[C@@H]2O[C@H](CO)[C@H](O)[C@H](O)[C@H]2O)[C@H](O)[C@H](O)[C@H]1O)c1ccccc1", "measurement": "60.6%"}
{"molecule": "CC(N[C@H]1C[C@H]1c1ccccc1)c1ccc2c(c1)OCCO2 (stereo not given in full)", "measurement": "60.1%"}
{"molecule": "CCN(CC)C(=O)c1ccc(C2=CC3(CCNCC3)Oc3cccc(O)c32)cc1", "measurement": "38.8%"}
{"molecule": "COc1ccc2c(c[n+](C)c3c4cc5c(cc4ccc23)OCO5)c1OC", "measurement": "104%"}
{"molecule": "CCC(=O)OC1CCC2C3CCC4=CC(=O)CC[C@@]4(C)C3CC[C@]12C (stereo not given in full)", "measurement": "94.7%"}
{"molecule": "COc1cccc2c1[C@]13CCN(CC4CC4)[C@H](C2)[C@]1(OC)CCC(=O)C3", "measurement": "69.1%"}

---

Experiment: qHTS of pediatric cancer cell lines to identify multiple opportunities for drug repurposing: Primary screen for SK-N-MC cells (AID 1347093); also: potency is read from the fitted curve at half-maximal effect
Settings: SK-N-MC viability, CellTiter-Glo luminescence, 48 h; series mostly up to 46 µM
Inconclusive results are not listed. The source made the active and inactive calls. Calls follow the shape of the dose curve; as a rule, active = well fitted cell-killing curve with a large enough effect; inconclusive = small, poorly fitted or top-dose-only effect; inactive = no such curve, though single readings can be large or run the other way.

{"compound": "C[C@]12CC[C@H]3[C@@H](CCC4=CC(=O)CC[C@@]43C)[C@H]1CC[C@H]2OC(=O)CCC1CCCC1", "Potency": "11.8 µM (active)"}
{"compound": "CCC1(CCC(C)C)C(=O)NC(=O)NC1=O", "Potency": "inactive"}
{"compound": "COC(=O)c1cncn1C(C)c1ccccc1 (configuration not stated)", "Potency": "inactive"}
{"compound": "CC(=Cc1csc(C)n1)[C@@H]1C[C@H]2O[C@]2(C)CCC[C@H](C)[C@@H](O)[C@@H](C)C(=O)C(C)(C)[C@@H](O)CC(=O)O1", "Potency": "0.001 µM (active)"}
{"compound": "O=S(=O)(O)C(F)(F)C(F)(F)C(F)(F)C(F)(F)F", "Potency": "inactive"}
{"compound": "C=CCC1=C(C)C(OC(=O)C2C(C=C(C)C)C2(C)C)CC1=O (configuration not stated)", "Potency": "38.6 µM (active)"}
{"compound": "CN[C@@H]1Cc2cccc3[nH]c(=O)n(c23)C1", "Potency": "inactive"}
{"compound": "Cc1ccc(Cl)c(O)c1", "Potency": "inactive"}
{"compound": "CCN(CC)C(=O)c1ccc(C2=CC3(CCNCC3)Oc3cccc(O)c32)cc1", "Potency": "inactive"}
{"compound": "CC1=C(O)C(=O)C=C2C1=CC=C1[C@@]2(C)CC[C@@]2(C)[C@@H]3C[C@](C)(C(=O)O)CC[C@]3(C)CC[C@]12C", "Potency": "0.833 µM (active)"}
{"compound": "CC[C@H]1C=CC=CC[C@@H](C)[C@H](O)[C@@](C)(O)C(=O)[C@@H](C)[C@H](O)[C@@H](C)C(=O)[C@@H](C)[C@H](O)[C@@H](C)C=CC(=O)O[C@@H]2[C@@H](C)[C@H](CC1)O[C@]1(CC[C@H](C)[C@H](C[C@@H](C)O)O1)[C@H]2C", "Potency": "0.0033 µM (active)"}
{"compound": "CC(Cc1ccc(O)cc1)NCC(O)c1cc(O)cc(O)c1 (configuration not stated)", "Potency": "inactive"}
{"compound": "CCOCCOC(C)=O", "Potency": "inactive"}
{"compound": "COc1ccc(C(=O)c2c(C)n(CCN3CCOCC3)c3cc(I)ccc23)cc1", "Potency": "1.48 µM (active)"}
{"compound": "CC[C@@H]1[C@@H](C)O[C@@](O)([C@@H](C)[C@H](O)[C@H](C)[C@H]2OC(=O)C=CC=C[C@@H](C)[C@@H]([C@@H](C)[C@@H](O)[C@H](C)[C@@]3(O)C[C@H](O[C@H]4C[C@H](O)[C@H](O)[C@H](C)O4)[C@H](CC)[C@@H](C)O3)OC(=O)C=CC=C[C@@H]2C)C[C@H]1O[C@H]1C[C@H](O)[C@H](O)[C@H](C)O1", "Potency": "0.372 µM (active)"}
{"compound": "O=C(O)CCCOc1ccc(Cl)cc1Cl", "Potency": "inactive"}
{"compound": "COC(=O)[C@@H](N)CCCN=C(N)N[N+](=O)[O-]", "Potency": "6.62 µM (active)"}
{"compound": "C[C@]12COC(=O)C[C@@H]1CC[C@@H]1[C@H]2CC[C@@]2(C)[C@H]1CC[C@]2(C)O", "Potency": "inactive"}
{"compound": "Cc1ccccc1-n1c(Cn2ncc3c(N)ncnc32)nc2cccc(C)c2c1=O", "Potency": "0.0132 µM (active)"}
{"compound": "Cc1c(N)nc([C@H](CC(N)=O)NC[C@@H](N)C(N)=O)nc1C(=O)N[C@H](C(=O)N[C@@H](C)[C@H](O)[C@@H](C)C(=O)N[C@@H](C(=O)NCCc1nc(-c2nc(C(=O)NCCC[S+](C)C)cs2)cs1)[C@@H](C)O)C(O[C@H]1O[C@H](CO)[C@H](O)[C@@H](O)[C@@H]1O[C@H]1O[C@H](CO)[C@@H](O)[C@H](OC(N)=O)[C@H]1O)c1cnc[nH]1 (some centres not stated)", "Potency": "0.833 µM (active)"}
{"compound": "O=c1cccc2n1CC1CNC[C@H]2C1", "Potency": "4.69 µM (active)"}
{"compound": "CC(C)N[C@@H]1CCn2c(=O)[nH]c3cccc(c32)[C@@H]1O", "Potency": "1.05 µM (active)"}
{"compound": "O=C1CCC[C@@H]2[C@H]3CCCN4CCC[C@@H](CN12)[C@@H]34", "Potency": "inactive"}
{"compound": "Cc1ccccc1-n1c(Cn2cnc3c(N)ncnc32)nc2cccc(C)c2c1=O", "Potency": "0.0209 µM (active)"}
{"compound": "O=C(Nc1ccncc1)C(=O)c1cn(Cc2ccc(Cl)cc2)c2ccccc12", "Potency": "0.0662 µM (active)"}
{"compound": "COc1ccc(N(C(=O)Oc2c(C)cccc2C)c2ccnc(Nc3ccc(N4CCN(C)CC4)cc3)n2)c(OC)c1", "Potency": "1.32 µM (active)"}
{"compound": "C[C@]12CC[C@@H]3[C@@H](CCC4=CC(=O)CC[C@@H]43)[C@@H]1CC[C@@H]2OC(=O)CCc1ccccc1", "Potency": "inactive"}
{"compound": "CCNC(=O)CC1N=C(c2ccc(Cl)cc2)c2cc(OC)ccc2-n2c(C)nnc21 (configuration not stated)", "Potency": "2.96 µM (active)"}
{"compound": "CC(C)NCC(O)c1ccc([N+](=O)[O-])cc1 (configuration not stated)", "Potency": "inactive"}
{"compound": "CC[C@@H](C(N)=O)N1CCCC1=O", "Potency": "26.4 µM (active)"}
{"compound": "CO/C=C(/C(=O)OC)c1ccccc1Oc1cc(Oc2ccccc2C#N)ncn1", "Potency": "17.2 µM (active)"}
{"compound": "CC1(C)CC/C(=C/c2ccc(Cl)cc2)C1(O)Cn1cncn1 (configuration not stated)", "Potency": "inactive"}
{"compound": "Nc1ccc([N+](=O)[O-])cc1", "Potency": "inactive"}
{"compound": "O=C(O)COc1ccccc1", "Potency": "inactive"}
{"compound": "O=C(N[C@@H](COc1ccc2[nH]c(=O)[nH]c2c1)c1ccccc1)c1cccn(Cc2ccc(F)c(F)c2)c1=O", "Potency": "18.7 µM (active)"}
{"compound": "CC(C)(C)NC[C@H](O)c1ccc(O)cc1Cl", "Potency": "inactive"}
{"compound": "Oc1ccc2c3c1O[C@H]1[C@@H](O)C=C[C@H]4[C@@H](C2)NCC[C@@]341", "Potency": "inactive"}
